EXPERIMENTAL_PROTOCOL: NCI Yeast Anticancer Drug Screen. Data for the rad50 strain (AID 155);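 note: 0% = growth of vehicle-only cultures of the same strain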
EXPERIMENTAL_SETUP: S. cerevisiae rad50 strain growth inhibition; at 50.0 µM; hits give high values
The panel holds about 79,000 compounds, 15% with a hit somewhere; the sample as a whole holds those more often.
METRIC_NAME: growth inhibition (%)
Just the number please, in %, no unit attached.

COMPOUND: CCN(CC)C1Oc2cc3c(cc2C(c2cc(OC)c(O)c(OC)c2)C1C)OCO3 (stereo not drawn)
growth inhibition, %: -14.6
--
COMPOUND: Oc1ccc(-c2ccc(O)cc2O)c(O)c1
growth inhibition, %: -1.45

// next item, growth inhibition requested
Item under review: CC1CCOC(/C=C/c2ccccc2)O1 (stereo not drawn) . Reported growth inhibition?
-7.9
